The reported numbers originate from patent US7674816B2.

Test system: GABAA α-6 site
experiment.description: GABAA alpha 6 site competitive binding (3H-Ro 15-4513)
test.parameters: Conc. 1.0E−4 M, bovine hippocampus
experimental.endpoint: Specific binding, GABAA Alpha 6 site (inhibition of radioactive ligand binding) (%)
Answers are plain numbers, in %.

1) COc1ccc2[nH]c(-c3ccc(C(F)(F)F)cc3)c(CCNC(C)=O)c2c1: 25.87
2) COc1ccc2[nH]c(-c3ccc(F)cc3)c(CCNC(C)=O)c2c1: 20.76
3) COc1ccc2[nH]c(-c3cccc(C(F)(F)F)c3)c(CCNC(C)=O)c2c1: 25.39

Provide each entry's Specific binding, GABAA Alpha 6 site (inhibition of radioactive ligand binding) from the list below.
1. COc1ccc(-c2[nH]c3ccc(OC)cc3c2CCNC(C)=O)cc1
2. CC(C)c1cccc(C(C)C)c1O [2,6-Diisopropylphenol, reference compound]
3. COc1ccc2[nH]c(-c3ccccc3)c(CCNC(C)=O)c2c1
4. COc1ccc2[nH]c(-c3ccc(C)cc3)c(CCNC(C)=O)c2c1

1. 6.68
2. −0.89
3. 12.48
4. 32.93

# return recorded Specific binding, GABAA Alpha 6 site (inhibition of radioactive ligand binding) for input CC(=O)NCCc1c(Cc2ccccc2)[nH]c2ccccc12 [Luzindole, reference compound]
4.93

====

System: GABAA α-1 site
experiment.description: GABAA alpha 1 site competitive binding (3H-flunitrazepam)
test.parameters: Conc. 1.0E−4 M, bovine hippocampus
experimental.endpoint: Specific binding, GABAA Alpha 1 site (inhibition of radioactive ligand binding)
Express the reported value numerically, then name its unit.

1. COc1ccc2[nH]c(-c3ccc(C)cc3)c(CCNC(C)=O)c2c1 [2-(4-Methylphenyl) melatonin]: 10.28%

Provide each entry's Specific binding, GABAA Alpha 1 site (inhibition of radioactive ligand binding) from the list below.
1. COc1ccc2[nH]c(-c3ccccc3)c(CCNC(C)=O)c2c1 [2-Phenylmelatonin]
2. COc1ccc2[nH]c(-c3cccc(C(F)(F)F)c3)c(CCNC(C)=O)c2c1 [2-(3-Trifluoromethylphenyl) melatonin]

1. 35.16%
2. 15.61%
